List of IC50 tested on Epidermal growth factor receptor (Homo sapiens, UniProt P00533, L858R/T790M).
Sequence (P00533 25-1210 T790M/L858R limits assumed): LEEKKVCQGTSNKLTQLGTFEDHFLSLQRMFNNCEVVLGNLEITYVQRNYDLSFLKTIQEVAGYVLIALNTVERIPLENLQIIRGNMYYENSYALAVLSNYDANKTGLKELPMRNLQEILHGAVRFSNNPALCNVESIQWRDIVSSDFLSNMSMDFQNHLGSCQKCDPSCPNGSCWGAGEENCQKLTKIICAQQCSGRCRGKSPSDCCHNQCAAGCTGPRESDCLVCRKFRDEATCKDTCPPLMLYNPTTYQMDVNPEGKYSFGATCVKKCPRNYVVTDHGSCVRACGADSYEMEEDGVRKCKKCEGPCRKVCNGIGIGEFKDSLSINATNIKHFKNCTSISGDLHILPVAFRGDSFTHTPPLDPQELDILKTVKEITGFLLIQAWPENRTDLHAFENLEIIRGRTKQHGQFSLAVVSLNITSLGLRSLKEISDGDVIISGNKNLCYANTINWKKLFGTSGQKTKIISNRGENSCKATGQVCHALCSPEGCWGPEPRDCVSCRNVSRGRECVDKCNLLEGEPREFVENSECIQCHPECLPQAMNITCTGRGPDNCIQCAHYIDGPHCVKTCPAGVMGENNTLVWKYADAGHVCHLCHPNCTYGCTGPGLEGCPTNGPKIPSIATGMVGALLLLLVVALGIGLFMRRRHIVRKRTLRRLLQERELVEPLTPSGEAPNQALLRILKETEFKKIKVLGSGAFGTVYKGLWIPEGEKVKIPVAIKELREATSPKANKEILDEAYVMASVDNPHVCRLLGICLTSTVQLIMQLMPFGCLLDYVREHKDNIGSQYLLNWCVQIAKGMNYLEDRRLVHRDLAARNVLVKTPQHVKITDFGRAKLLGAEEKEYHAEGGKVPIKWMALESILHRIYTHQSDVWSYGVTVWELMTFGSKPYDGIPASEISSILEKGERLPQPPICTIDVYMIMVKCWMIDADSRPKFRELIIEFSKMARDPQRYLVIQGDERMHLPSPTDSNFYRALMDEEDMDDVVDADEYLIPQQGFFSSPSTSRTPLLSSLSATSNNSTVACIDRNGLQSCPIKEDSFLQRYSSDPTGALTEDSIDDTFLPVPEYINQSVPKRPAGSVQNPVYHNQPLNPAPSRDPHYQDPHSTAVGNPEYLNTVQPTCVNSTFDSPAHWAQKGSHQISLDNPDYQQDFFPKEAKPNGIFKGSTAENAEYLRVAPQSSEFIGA

{"Chemical Smiles": "C=CC(=O)Nc1cccc(Nc2nc(Nc3ccc(/C=C/c4ccc(C)cc4C)cc3)ncc2F)c1", "IC50 [nM]": 8.1}
{"Chemical Smiles": "C=CC(=O)Nc1cccc(Nc2nc(Nc3ccc(/C=C/c4cc(OC)cc(OC)c4)cc3)ncc2Cl)c1", "IC50 [nM]": 15.7}
{"Chemical Smiles": "C=CC(=O)Nc1cccc(Nc2nc(Nc3ccc(/C=C/c4cc(Cl)cc(Cl)c4)cc3)ncc2F)c1", "IC50 [nM]": 14.2}

* * *

Test Summary: Antiproliferative activity against NHBE cells assessed as decrease in cell viability after 72 hrs by MTT assay
Assay type: ADME, cell-based
Assay Setup: Homo sapiens
pIC50: −log10 of the molar value.
Readout Label: pIC50

{"Chemical Smiles": "C=CC(=O)Nc1cccc(Nc2nc(Nc3ccc(N4CCN(C(C)=O)CC4)cc3OC)ncc2C(F)(F)F)c1", "Number": 4.62}
{"Chemical Smiles": "C=CC(=O)Nc1cccc(Oc2nc(Nc3ccc(/C=C/c4cc(C)cc(C)c4)cc3)ncc2Cl)c1", "Number": 5.22}
{"Chemical Smiles": "C=CC(=O)Nc1cccc(Nc2nc(Nc3ccc(/C=C/c4ccc(C)cc4C)cc3)ncc2Cl)c1", "Number": 4.80}
{"Chemical Smiles": "C=CC(=O)Nc1cccc(Nc2nc(Nc3ccc(/C=C/c4cc(Cl)cc(Cl)c4)cc3)ncc2F)c1", "Number": 5.27}
